Source listed as patent US20240409658A1.

- TESTED SYSTEM: T1, human CD228 on the cell surface (RPMI-7951 cells stably expressing human CD228; A375 cells) (human, UniProt P08582 20-709)
- T1 construct: whole, on cells; also called p97; melanotransferrin
- T1 sequence (looked up): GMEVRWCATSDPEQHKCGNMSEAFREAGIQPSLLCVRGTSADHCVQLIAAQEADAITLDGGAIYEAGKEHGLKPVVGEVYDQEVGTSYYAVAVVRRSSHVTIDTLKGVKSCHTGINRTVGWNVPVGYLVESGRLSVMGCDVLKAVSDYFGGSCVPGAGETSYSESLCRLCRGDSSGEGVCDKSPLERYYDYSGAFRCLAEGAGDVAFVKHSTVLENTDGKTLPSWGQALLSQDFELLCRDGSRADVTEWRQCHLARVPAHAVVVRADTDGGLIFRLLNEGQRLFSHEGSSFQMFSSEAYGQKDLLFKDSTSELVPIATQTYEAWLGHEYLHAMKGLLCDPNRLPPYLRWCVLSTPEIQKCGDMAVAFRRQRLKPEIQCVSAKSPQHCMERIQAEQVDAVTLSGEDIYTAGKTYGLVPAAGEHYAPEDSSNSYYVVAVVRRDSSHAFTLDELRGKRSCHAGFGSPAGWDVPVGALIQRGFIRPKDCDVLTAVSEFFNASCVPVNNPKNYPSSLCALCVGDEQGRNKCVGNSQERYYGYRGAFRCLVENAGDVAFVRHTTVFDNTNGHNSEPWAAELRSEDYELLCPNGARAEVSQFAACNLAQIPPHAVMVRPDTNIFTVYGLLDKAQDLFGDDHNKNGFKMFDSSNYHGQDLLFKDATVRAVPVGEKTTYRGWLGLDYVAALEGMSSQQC
- METHOD SUMMARY: competition flow cytometry, RPMI-7951 cells stably expressing human CD228; competitor 5 nM AF647-labeled mL49; unlabeled antibody 0.06-1000 nM
- Protocol: Binding curves for each resulting antibody was determined by a competition binding assay. Briefly, 1×10⁵ RPMI-7951 cells stably expressing human CD228 were aliquoted per well of a 96-well v-bottom plates on ice. […] Cells were pelleted and washed 3 times with PBS/BSA. The cells were pelleted and resuspended in 125 μL of PBS/BSA. Fluorescence was analyzed by flow cytometry, using percent of saturated fluorescent signal to determine percent labeled murine CD228 mAb bound.
IC50 (read off the curve): recorded values

BINDER	MEASURED
hL49ec HALA (antibody, V domains shown, Same variable regions as m5 (hL49 HALA G1); The sheet prints 'ec', so it is kept apart from the G1 form; also called HALA in the 'ec' format) VH: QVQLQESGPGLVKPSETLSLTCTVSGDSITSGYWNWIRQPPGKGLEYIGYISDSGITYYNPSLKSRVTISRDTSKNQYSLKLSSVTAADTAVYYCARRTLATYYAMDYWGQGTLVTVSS VL: DFVMTQSPLSLPVTLGQPASISCRASQSLVHSNGNTYLHWFQQRPGQSPRRLIYRVSNRFSGVPDRFSGSGSGTDFTLKISRVEAEDVGVYYCSQSTHVPPTFGQGTKLEIK	~40 nM
hL49ec HALB (antibody, V domains shown, Same variable regions as m6 (hL49 HALB G1); The sheet prints 'ec', so it is kept apart from the G1 form; also called HALB in the 'ec' format) VH: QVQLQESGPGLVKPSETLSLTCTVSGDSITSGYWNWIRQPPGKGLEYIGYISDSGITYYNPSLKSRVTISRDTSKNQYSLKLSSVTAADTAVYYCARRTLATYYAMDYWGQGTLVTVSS VL: DFVMTQSPLSLPVTLGQPASISCRASQSLVHSNGNTYLHWYQQRPGQSPRLLIYRVSNRFSGVPDRFSGSGSGTDFTLKISRVEAEDVGVYYCSQSTHVPPTFGQGTKLEIK	20 to 30 nM
cL49ec (chimeric L49 with an S239C mutation) (antibody, V domains shown, Human constant regions with S239C; also called chimeric LA9) VH: EVQLQESGPSLVKPSQTLSLTCSVTGDSITSGYWNWIRKFPGNKLEYMGYISDSGITYYNPSLKSRISITRDTSKNQYYLQLNFVTAEDTATYNCARRTLATYYAMDYWGQGTSVTVSS VL: DFVMTQTPLSLPVSLGDQASISCRASQSLVHSNGNTYLHWYLQKPGQSPKLLIYRVSNRFSGVPDRFSGSGSGTDFTLKISRVEAEDLGVYFCSQSTHVPPTFGGGTKLEIK	~30 nM

Now for the binder whose IC50 (read off the curve) we want.
// query Dear colleague, please send me the reported IC50 (read off the curve) for mouse antibody L49 (mL49), AlexaFluor-647 labeled parental murine CD228 mAb (antibody, mouse IgG1, V domains shown, also called Mu L49) VH: EVQLQESGPSLVKPSQTLSLTCSVTGDSITSGYWNWIRKFPGNKLEYMGYISDSGITYYNPSLKSRISITRDTSKNQYYLQLNFVTAEDTATYNCARRTLATYYAMDYWGQGTSVTVSS VL: DFVMTQTPLSLPVSLGDQASISCRASQSLVHSNGNTYLHWYLQKPGQSPKLLIYRVSNRFSGVPDRFSGSGSGTDFTLKISRVEAEDLGVYFCSQSTHVPPTFGGGTKLEIK when you can.
// result 10 to 20 nM
